Source: the supplement of paper PMC3334620

Could you please report measured PBM E-score for the items listed next?
# assayed-system: Cad1 (UniProt P24813)
# Sequence: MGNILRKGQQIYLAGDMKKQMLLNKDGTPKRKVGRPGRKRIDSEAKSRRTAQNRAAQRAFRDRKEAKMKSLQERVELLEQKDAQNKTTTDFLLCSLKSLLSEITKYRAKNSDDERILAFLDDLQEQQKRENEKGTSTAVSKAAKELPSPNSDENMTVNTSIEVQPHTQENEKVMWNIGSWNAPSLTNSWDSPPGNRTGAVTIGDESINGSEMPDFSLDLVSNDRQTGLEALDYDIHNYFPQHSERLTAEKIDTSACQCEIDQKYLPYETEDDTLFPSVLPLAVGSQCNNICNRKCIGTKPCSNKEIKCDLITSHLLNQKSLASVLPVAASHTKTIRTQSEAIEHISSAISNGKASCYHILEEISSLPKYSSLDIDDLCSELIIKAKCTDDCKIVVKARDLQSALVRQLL
# test: PBM E-score (8-mer binding enrichment) (E-score (-0.5 to 0.5)); higher = stronger / more preferred TF binding
# condition-set: protein concentration: 100 nM; construct: GST-full length
In all, about 33,000 sequences were measured (“E-score (-0.5 to 0.5)”: median about -0.0014, highest 2% from about 0.25 on). The full list was thinned out, with the highest values kept by preference.
The answer should be written as a number, with no unit following it.

## Input Provide the reported PBM E-score (system: Cad1 (UniProt P24813)) for GTAAATTA
## Output -0.053

## Input Provide the reported PBM E-score (system: Cad1 (UniProt P24813)) for ACAAACAT
## Output 0.145

## Input Provide the reported PBM E-score (system: Cad1 (UniProt P24813)) for AATACTCC
## Output -0.123

## Input Provide the reported PBM E-score (system: Cad1 (UniProt P24813)) for GGAATCGA
## Output 0.00927

## Input Provide the reported PBM E-score (system: Cad1 (UniProt P24813)) for CTAATCAG
## Output 0.227

## Input Provide the reported PBM E-score (system: Cad1 (UniProt P24813)) for ATAAATTG
## Output 0.253

## Input Provide the reported PBM E-score (system: Cad1 (UniProt P24813)) for GCAGAGGA
## Output 0.0638

## Input Provide the reported PBM E-score (system: Cad1 (UniProt P24813)) for ACCCATGA
## Output -0.0855

## Input Provide the reported PBM E-score (system: Cad1 (UniProt P24813)) for CGAGCGTA
## Output 0.0172

## Input Provide the reported PBM E-score (system: Cad1 (UniProt P24813)) for TCTTCAAA
## Output -0.0389

## Input Provide the reported PBM E-score (system: Cad1 (UniProt P24813)) for CTGTTCGA
## Output -0.08

## Input Provide the reported PBM E-score (system: Cad1 (UniProt P24813)) for CTCACGTA
## Output -0.0707

## Input Provide the reported PBM E-score (system: Cad1 (UniProt P24813)) for ATTACGAG
## Output 0.0536

## Input Provide the reported PBM E-score (system: Cad1 (UniProt P24813)) for GTTACGAA
## Output 0.17

## Input Provide the reported PBM E-score (system: Cad1 (UniProt P24813)) for CCATGCAG
## Output -0.0439

## Input Provide the reported PBM E-score (system: Cad1 (UniProt P24813)) for GATGATTA
## Output 0.126

## Input Provide the reported PBM E-score (system: Cad1 (UniProt P24813)) for CCAGGAAG
## Output -0.131

## Input Provide the reported PBM E-score (system: Cad1 (UniProt P24813)) for CTAAATTA
## Output 0.2

## Input Provide the reported PBM E-score (system: Cad1 (UniProt P24813)) for CATATTGC
## Output -0.116

## Input Provide the reported PBM E-score (system: Cad1 (UniProt P24813)) for CTAATCGC
## Output 0.0731

## Input Provide the reported PBM E-score (system: Cad1 (UniProt P24813)) for CGGCTAAA
## Output -0.0162

## Input Provide the reported PBM E-score (system: Cad1 (UniProt P24813)) for CAGTCCAG
## Output -0.0544

## Input Provide the reported PBM E-score (system: Cad1 (UniProt P24813)) for GCGCACCA
## Output 0.134

## Input Provide the reported PBM E-score (system: Cad1 (UniProt P24813)) for CGACTAAG
## Output -0.00537

## Input Provide the reported PBM E-score (system: Cad1 (UniProt P24813)) for TAAAATTA
## Output 0.297

## Input Provide the reported PBM E-score (system: Cad1 (UniProt P24813)) for ACGTTTGA
## Output 0.0358

## Input Provide the reported PBM E-score (system: Cad1 (UniProt P24813)) for CTAATCGA
## Output 0.315

## Input Provide the reported PBM E-score (system: Cad1 (UniProt P24813)) for AGCGCTAT
## Output 0.278

## Input Provide the reported PBM E-score (system: Cad1 (UniProt P24813)) for CGCACCGA
## Output -0.0919

## Input Provide the reported PBM E-score (system: Cad1 (UniProt P24813)) for CGAATCGA
## Output 0.325

## Input Provide the reported PBM E-score (system: Cad1 (UniProt P24813)) for ATAATCAG
## Output 0.225

## Input Provide the reported PBM E-score (system: Cad1 (UniProt P24813)) for AATATTGC
## Output 0.294

## Input Provide the reported PBM E-score (system: Cad1 (UniProt P24813)) for GACCGTAA
## Output -0.061

## Input Provide the reported PBM E-score (system: Cad1 (UniProt P24813)) for CAGTGGAA
## Output -0.0557

## Input Provide the reported PBM E-score (system: Cad1 (UniProt P24813)) for AAGCACAG
## Output 0.0641

## Input Provide the reported PBM E-score (system: Cad1 (UniProt P24813)) for AAGCACAC
## Output -0.0239

## Input Provide the reported PBM E-score (system: Cad1 (UniProt P24813)) for AGCTAGCT
## Output 0.162

## Input Provide the reported PBM E-score (system: Cad1 (UniProt P24813)) for TGGAGAAA
## Output -0.151

## Input Provide the reported PBM E-score (system: Cad1 (UniProt P24813)) for AAGCGATA
## Output 0.103

## Input Provide the reported PBM E-score (system: Cad1 (UniProt P24813)) for CATGTGCG
## Output 0.173

## Input Provide the reported PBM E-score (system: Cad1 (UniProt P24813)) for ACTGGGAA
## Output -0.0452

## Input Provide the reported PBM E-score (system: Cad1 (UniProt P24813)) for CCTGCTAG
## Output -0.182

## Input Provide the reported PBM E-score (system: Cad1 (UniProt P24813)) for GCTGATAA
## Output 0.161

## Input Provide the reported PBM E-score (system: Cad1 (UniProt P24813)) for ATAATCGA
## Output 0.146

## Input Provide the reported PBM E-score (system: Cad1 (UniProt P24813)) for CAGGGCTC
## Output -0.158

## Input Provide the reported PBM E-score (system: Cad1 (UniProt P24813)) for CACCTAAA
## Output 0.0285
